assay: activity coefficient (dimensionless); of the first substance listed, at infinite dilution; xn = mol fraction of the nth substance listed; settings: 333.15 K; Liquid; Chromatography; x1 = 0
label 1 if activity coefficient is below 6. label 0 if not; exact matches included in label 0.

Input: Quick check: does CCC(C)CC [3-methylpentane] + CCCOC[n+]1ccc(N(C)C)cc1.O=S(=O)([N-]S(=O)(=O)C(F)(F)F)C(F)(F)F have activity coefficient under 6?
Output: label 0

Input: State whether 6 exceeds activity coefficient recorded for Cc1ccc(C)cc1 [1,4-dimethylbenzene] + Cn1cc[n+](COCCCOC[n+]2ccn(C)c2)c1.N#C[N-]C#N.N#C[N-]C#N .
Output: label 0

Input: Hello, I'm reviewing records and need to know if activity coefficient of C1CCCCC1 [cyclohexane] + CCCOC[n+]1ccn(Cc2ccccc2)c1.O=S(=O)([N-]S(=O)(=O)C(F)(F)F)C(F)(F)F is below 6. Could you check?
Output: label 1

Input: Hi there! Is activity coefficient for CCC(C)=O [butanone] + CCCCCCCCn1cc[n+](COCCCOC[n+]2ccn(CCCCCCCC)c2C)c1C.O=S(=O)([N-]S(=O)(=O)C(F)(F)F)C(F)(F)F.O=S(=O)([N-]S(=O)(=O)C(F)(F)F)C(F)(F)F below 6, do you know?
Output: label 1

Input: Item CCCCCCCCCC [decane] + CCCOC[n+]1ccn(Cc2ccccc2)c1.F[B-](F)(F)F : activity coefficient beneath 6, strictly?
Output: label 0

Input: Answer whether the molecule CCC(C)=O [butanone] + Cn1cc[n+](COCCCOC[n+]2ccn(C)c2)c1.O=S(=O)([N-]S(=O)(=O)C(F)(F)F)C(F)(F)F.O=S(=O)([N-]S(=O)(=O)C(F)(F)F)C(F)(F)F has activity coefficient strictly less than 6
Output: label 1

Input: Quick check: does Cc1ccccc1 [toluene] + Cn1cc[n+](COCCCOC[n+]2ccn(C)c2)c1.N#C[N-]C#N.N#C[N-]C#N have activity coefficient under 6?
Output: label 1

Input: Does the reported activity coefficient of c1ccncc1 [pyridine] + CN(C)c1cc[n+](COCCCOC[n+]2ccc(N(C)C)cc2)cc1.O=S(=O)([N-]S(=O)(=O)C(F)(F)F)C(F)(F)F.O=S(=O)([N-]S(=O)(=O)C(F)(F)F)C(F)(F)F stay below 6?
Output: label 1

Input: Below 6 on activity coefficient? Entry CCCCCCCCC [nonane] + CCCCCCCCn1cc[n+](COCCC)c1C.N#C[N-]C#N
Output: label 0

Input: Regarding CCO [ethanol] + CCCOC[n+]1ccc(N(C)C)cc1.O=S(=O)([N-]S(=O)(=O)C(F)(F)F)C(F)(F)F , kindly confirm whether its activity coefficient is beneath 6.
Output: label 1

---

Catalogue of activity coefficient readings, one per entry.
test: activity coefficient (dimensionless); of the first substance listed, at infinite dilution; xn = mol fraction of the nth substance listed; conditions: 323.15 K; Liquid; Chromatography; x1 = 0
// keep it numeric: no unit symbol after the value

INSERT INTO measurements (compound, value_observed) VALUES
  ('CCC(=O)CC [pentan-3-one] + Cn1cc[n+](COCCCOC[n+]2ccn(C)c2)c1.O=S(=O)([N-]S(=O)(=O)C(F)(F)F)C(F)(F)F.O=S(=O)([N-]S(=O)(=O)C(F)(F)F)C(F)(F)F', 0.6),
  ('C1CCCCCC1 [cycloheptane] + CCCOC[n+]1ccn(Cc2ccccc2)c1.N#C[N-]C#N', 35.8);

We now examine a further compound.
Input: Dear colleague, I am looking for the recorded activity coefficient of the following compound: Cc1ccccc1 [toluene] + CCCCCCCCn1cc[n+](COCCC)c1C.O=S(=O)([N-]S(=O)(=O)C(F)(F)F)C(F)(F)F
Output: 0.76

---

assay: activity coefficient (dimensionless); of the first substance listed, at infinite dilution; xn = mol fraction of the nth substance listed; settings: 323.15 K; Liquid; Chromatography; x1 = 0
Parameter: activity coefficient. Scope: all listed entries.
Answer as a number with no unit attached.

Sample answers from the record:
INSERT INTO measurements (molecule, value_observed) VALUES
  ('C=CCCCC [hex-1-ene] + CCCOC[n+]1ccc(N(C)C)cc1.O=S(=O)([N-]S(=O)(=O)C(F)(F)F)C(F)(F)F', 6.62),
  ('CC(C)CO [2-methyl-1-propanol] + CCCOC[n+]1ccn(C)c1.N#C[N-]C#N', 1.29);

Input: I would be grateful if you could share the reported activity coefficient for C=CCCCC [hex-1-ene] + CCCOC[n+]1ccn(Cc2ccccc2)c1.O=S(=O)([N-]S(=O)(=O)C(F)(F)F)C(F)(F)F .
Output: 5.09

Input: For the molecule CCCC(C)=O [pentan-2-one] + CCCCCCCCn1cc[n+](COCCC)c1C.O=S(=O)([N-]S(=O)(=O)C(F)(F)F)C(F)(F)F , what activity coefficient is on record?
Output: 0.48

---

assay: activity coefficient (dimensionless); of the first substance listed, at infinite dilution; xn = mol fraction of the nth substance listed; settings: 343.15 K; Liquid; Chromatography; x1 = 0
Returns one of Yes or No; Yes when activity coefficient is >= 3.

Known results for compounds:
INSERT INTO measurements (compound, group) VALUES
  ('CCO [ethanol] + CCCCCCCCn1cc[n+](COCCC)c1C.O=S(=O)([N-]S(=O)(=O)C(F)(F)F)C(F)(F)F', 'No'),
  ('CCC(=O)CC [pentan-3-one] + CCCOC[n+]1ccn(C)c1.F[B-](F)(F)F', 'Yes'),
  ('C1CCCCCC1 [cycloheptane] + CCCOC[n+]1ccn(Cc2ccccc2)c1.O=S(=O)([N-]S(=O)(=O)C(F)(F)F)C(F)(F)F', 'Yes');

Input: Does CCCC(C)=O [pentan-2-one] + CCCCCCCCn1cc[n+](COCCCOC[n+]2ccn(CCCCCCCC)c2C)c1C.N#C[N-]C#N.N#C[N-]C#N have a reported activity coefficient of at least 3?
Output: No

Input: Kindly determine if activity coefficient recorded for CCC(=O)CC [pentan-3-one] + CCCOC[n+]1ccc(N(C)C)cc1.O=S(=O)([N-]S(=O)(=O)C(F)(F)F)C(F)(F)F is above or exactly 3.
Output: No

Input: Is activity coefficient for CC1CCCC1 [methylcyclopentane] + CCCOC[n+]1ccc(N(C)C)cc1.O=S(=O)([N-]S(=O)(=O)C(F)(F)F)C(F)(F)F at or above 3?
Output: Yes

Input: Please indicate if the recorded activity coefficient for CCCCCCCCCC [decane] + CCCOC[n+]1ccn(C)c1.O=S(=O)([N-]S(=O)(=O)C(F)(F)F)C(F)(F)F meets or exceeds 3.
Output: Yes

---

Listed here are compounds together with their documented activity coefficient.
assay: activity coefficient (dimensionless); of the first substance listed, at infinite dilution; xn = mol fraction of the nth substance listed; details: 333.15 K; Liquid; Chromatography; x1 = 0
Could you respond with only the numeric value?

Use these answered entries as a reference point.
INSERT INTO assay_data (compound, readout_name, value_observed) VALUES
  ('CCCCCCCCCCC [undecane] + CCCCCCCCn1cc[n+](COCCC)c1C.O=S(=O)([N-]S(=O)(=O)C(F)(F)F)C(F)(F)F', 'activity coefficient', 10.5),
  ('CCC(=O)CC [pentan-3-one] + CCCOC[n+]1ccn(Cc2ccccc2)c1.N#C[N-]C#N', 'activity coefficient', 1.4),
  ('CC1CCCCC1 [methylcyclohexane] + CCCOC[n+]1ccn(C)c1.F[B-](F)(F)F', 'activity coefficient', 70.4),
  ('Cc1cccc(C)c1 [1,3-dimethylbenzene] + CCCOC[n+]1ccn(Cc2ccccc2)c1.F[B-](F)(F)F', 'activity coefficient', 4.91),
  ('C#CCCCCC [1-heptyne] + CCCOC[n+]1ccc(N(C)C)cc1.O=S(=O)([N-]S(=O)(=O)C(F)(F)F)C(F)(F)F', 'activity coefficient', 3.35);

Input: Value lookup for activity coefficient; key = CC(C)CO [2-methyl-1-propanol] + CCCOC[n+]1ccn(Cc2ccccc2)c1.F[B-](F)(F)F
Output: 2.53

Input: Requested field: activity coefficient. Item: c1ccccc1 [benzene] + CCCCCCCCn1cc[n+](COCCC)c1C.O=S(=O)([N-]S(=O)(=O)C(F)(F)F)C(F)(F)F
Output: 0.59

---

test: activity coefficient (dimensionless); of the first substance listed, at infinite dilution; xn = mol fraction of the nth substance listed; details: 343.15 K; Liquid; Chromatography; x1 = 0
READOUT_NAME: activity coefficient
The answer should be written as a number, with no unit following it.

INSERT INTO measurements (molecule, readout_name, value_observed) VALUES
  ('CCOCC [diethyl ether] + CN(C)c1cc[n+](COCCCOC[n+]2ccc(N(C)C)cc2)cc1.O=S(=O)([N-]S(=O)(=O)C(F)(F)F)C(F)(F)F.O=S(=O)([N-]S(=O)(=O)C(F)(F)F)C(F)(F)F', 'activity coefficient', 2.43),
  ('C1CCCCC1 [cyclohexane] + CCCCCCCCn1cc[n+](COCCCOC[n+]2ccn(CCCCCCCC)c2C)c1C.N#C[N-]C#N.N#C[N-]C#N', 'activity coefficient', 3.71),
  ('C#CCCCC [1-hexyne] + CCCCCCCCn1cc[n+](COCCC)c1C.O=S(=O)([N-]S(=O)(=O)C(F)(F)F)C(F)(F)F', 'activity coefficient', 1.34);

Input: Consider the molecule shown here: C1CCCCCC1 [cycloheptane] + N#C[N-]C#N.N#C[N-]C#N.c1ccc(Cn2cc[n+](COCCCOC[n+]3ccn(Cc4ccccc4)c3)c2)cc1 What is its recorded activity coefficient?
Output: 171

Input: Param item = CCCCCCCCC [nonane] + CCCCCCCCn1cc[n+](COCCCOC[n+]2ccn(CCCCCCCC)c2C)c1C.O=S(=O)([N-]S(=O)(=O)C(F)(F)F)C(F)(F)F.O=S(=O)([N-]S(=O)(=O)C(F)(F)F)C(F)(F)F ; retrieve measured activity coefficient.
Output: 7.1

Where these numbers come from: the NIST ThermoML archive (doi:10.1016/j.fluid.2014.11.020)
